- PROTOCOL DETAILS: Absorbance at photostationary state (PSS) under simulated sunlight or 365 nm light
- Format: physicochemical
- Design: unit not given here
- RUN CONDITIONS: wavelength of maximum absorbance in the visible range, ring-closed isoform; 2.0×10^−5 M in triglyme
VALUE TYPE: λ max
Form rule: numeric answer, no unit written next to it.

Examples with answers:
[
  {
    "COMPOUND": "Cc1cc(-c2sc(C)c(C)c2C2=C(c3c(-c4cc(C)c(C)s4)sc(C)c3C)C(F)(F)C(F)(F)C2(F)F)sc1C [S039]",
    "RECORDED RESULT": 570
  },
  {
    "COMPOUND": "CC(C)(C)c1ccc(-c2sc(-c3ccc(C4(C)OCCO4)cc3)cc2C2=C(c3cc(-c4ccc(C5(C)OCCO5)cc4)sc3-c3ccc(C(C)(C)C)cc3)C(F)(F)C(F)(F)C2(F)F)cc1 [S066]",
    "RECORDED RESULT": 615
  },
  {
    "COMPOUND": "CC(C)(C)c1ccc(-c2cc(C3=C(c4cc(-c5sc(C(C)(C)C)cc5C(=O)O)sc4-c4ccc(C(=O)O)s4)C(F)(F)C(F)(F)C3(F)F)c(-c3ccc(C(=O)O)s3)s2)s1 [S124]",
    "RECORDED RESULT": 649
  },
  {
    "COMPOUND": "COc1ccc(-c2sc(-c3ccc(/C=C/C=C/c4ccccc4)cc3)cc2C2=C(c3cc(-c4ccc(/C=C/C=C/c5ccccc5)cc4)sc3-c3ccc(OC)cc3)C(F)(F)C(F)(F)C2(F)F)cc1 [S089]",
    "RECORDED RESULT": 656
  }
]

Now consider a different compound.
Request the reported λ max associated with FC1(F)C(c2cc(-c3ccc(Cl)s3)sc2-c2ccc(Cl)s2)=C(c2cc(-c3ccc(Cl)s3)sc2-c2ccc(Cl)s2)C(F)(F)C1(F)F [S026]
645
